- Tested On: DRB4*0101 (Homo sapiens, UniProt P01903+P13762, G164S)
- Assay Text: biochemical
pIC50: −log10 of the molar value.

| Structure Smiles String | pIC50 |
| --- | --- |
| CC[C@H](C)[C@H](NC(=O)[C@H](Cc1ccc(O)cc1)NC(=O)CNC(=O)[C@H](CCCNC(=N)N)NC(=O)[C@H](C)N)C(=O)N[C@@H](CO)C(=O)N[C@H](C(=O)N[C@@H](CCCNC(=N)N)C(=O)N[C@H](C(=O)NCC(=O)N[C@@H](CCSC)C(=O)NCC(=O)N[C@@H](CCC(=O)O)C(=O)N[C@@H](C)C(=O)N[C@@H](C)C(=O)O)C(C)C)[C@@H](C)O | 5.14 |
| CC[C@H](C)[C@H](NC(=O)[C@H](C)NC(=O)CNC(=O)[C@@H](NC(=O)[C@H](CCC(=O)O)NC(=O)CNC(=O)[C@@H](NC(=O)[C@@H](NC(=O)[C@@H](NC(=O)[C@H](CCC(N)=O)NC(=O)[C@H](Cc1ccccc1)NC(=O)[C@@H](NC(=O)CNC(=O)[C@@H]1CCCN1)[C@@H](C)O)[C@@H](C)O)[C@@H](C)O)[C@@H](C)O)[C@@H](C)CC)C(=O)N[C@@H](C)C(=O)O | 5.73 |

---

- Tested On: DRB3*0101 (Homo sapiens, UniProt P01903+P79483)
- Assay Text: biochemical
pIC50: −log10 of the molar value.

| Compound | pIC50 |
| --- | --- |
| CC[C@H](C)[C@H](NC(=O)[C@H](CCCCN)NC(=O)[C@H](CCCCN)NC(=O)[C@H](CCC(=O)O)NC(=O)[C@H](CC(C)C)NC(=O)[C@@H]1CCCN1C(=O)[C@H](Cc1c[nH]cn1)NC(=O)[C@@H]1CCCN1C(=O)[C@H](CC(N)=O)NC(=O)[C@H](CCC(=O)O)NC(=O)[C@H](CC(C)C)NC(=O)[C@H](CC(=O)O)NC(=O)[C@H](C)NC(=O)[C@@H](N)CCCCN)C(=O)N[C@H](C(=O)N[C@@H](CCC(N)=O)C(=O)N[C@@H](Cc1c[nH]c2ccccc12)C(=O)O)[C@@H](C)O [NS5 630-646] | 4.86 |
| CC(C)C[C@H](NC(=O)[C@H](CCCCN)NC(=O)[C@@H](NC(=O)[C@H](CCCCN)NC(=O)[C@H](CCC(N)=O)NC(=O)[C@H](Cc1ccc(O)cc1)NC(=O)[C@H](CCC(=O)O)NC(=O)[C@@H](NC(=O)[C@H](CC(=O)O)NC(=O)[C@H](Cc1ccccc1)NC(=O)[C@@H](NC(=O)[C@@H](N)CCCCN)[C@@H](C)O)[C@@H](C)O)[C@@H](C)O)C(=O)N[C@@H](CC(N)=O)C(=O)N[C@@H](CC(=O)O)C(=O)N[C@@H](Cc1c[nH]c2ccccc12)C(=O)O [NS3 389-403] | 5.34 |
| CC[C@H](C)[C@H](NC(=O)CNC(=O)[C@@H](NC(=O)[C@H](C)NC(=O)[C@@H](NC(=O)[C@H](CS)NC(=O)[C@@H](N)CO)[C@@H](C)CC)[C@@H](C)CC)C(=O)N[C@H](C(=O)N[C@H](C(=O)N[C@@H](CC(C)C)C(=O)N[C@@H](Cc1ccc(O)cc1)C(=O)N[C@@H](CC(C)C)C(=O)NCC(=O)N[C@@H](C)C(=O)N[C@H](C(=O)N[C@H](C(=O)N[C@@H](CCC(N)=O)C(=O)N[C@@H](C)C(=O)O)C(C)C)C(C)C)[C@@H](C)O)[C@@H](C)CC [Envelope 476-493] | 5.42 |
| CC[C@H](C)[C@H](NC(=O)[C@H](CC(=O)O)NC(=O)[C@@H](NC(=O)[C@@H](NC(=O)[C@@H](NC(=O)[C@@H](NC(=O)[C@@H](N)Cc1ccccc1)C(C)C)C(C)C)[C@@H](C)O)[C@@H](C)O)C(=O)N[C@@H](CO)C(=O)N[C@@H](CCC(=O)O)C(=O)N[C@@H](CCSC)C(=O)NCC(=O)N[C@@H](C)C(=O)N[C@@H](CC(N)=O)C(=O)N[C@@H](Cc1ccccc1)C(=O)N[C@@H](CCCCN)C(=O)O [NS3 405-419] | 5.80 |
| CC[C@H](C)[C@H](NC(=O)[C@H](CC(C)C)NC(=O)[C@H](CCC(=O)O)NC(=O)[C@H](CC(=O)O)NC(=O)[C@H](CCC(N)=O)NC(=O)[C@@H]1CCCN1C(=O)[C@H](CCCNC(=N)N)NC(=O)[C@H](CS)NC(=O)[C@@H]1CCCN1C(=O)[C@@H](NC(=O)[C@@H](NC(=O)[C@H](CC(C)C)NC(=O)[C@H](CCCCN)NC(=O)[C@H](CCCNC(=N)N)NC(=O)CNC(=O)[C@H](CC(=O)O)NC(=O)[C@@H](N)CCCCN)C(C)C)C(C)C)C(=O)O [NS5 719-735] | 5.25 |

Cited source: paper PMC3794980
